molecular target: xanthine oxidase (Bos taurus, UniProt P80457); assay: xanthine oxidase inhibitory activity (absorbance at 290 nm, xanthine substrate); assay type: biochemical
Sequence (P80457 whole entry): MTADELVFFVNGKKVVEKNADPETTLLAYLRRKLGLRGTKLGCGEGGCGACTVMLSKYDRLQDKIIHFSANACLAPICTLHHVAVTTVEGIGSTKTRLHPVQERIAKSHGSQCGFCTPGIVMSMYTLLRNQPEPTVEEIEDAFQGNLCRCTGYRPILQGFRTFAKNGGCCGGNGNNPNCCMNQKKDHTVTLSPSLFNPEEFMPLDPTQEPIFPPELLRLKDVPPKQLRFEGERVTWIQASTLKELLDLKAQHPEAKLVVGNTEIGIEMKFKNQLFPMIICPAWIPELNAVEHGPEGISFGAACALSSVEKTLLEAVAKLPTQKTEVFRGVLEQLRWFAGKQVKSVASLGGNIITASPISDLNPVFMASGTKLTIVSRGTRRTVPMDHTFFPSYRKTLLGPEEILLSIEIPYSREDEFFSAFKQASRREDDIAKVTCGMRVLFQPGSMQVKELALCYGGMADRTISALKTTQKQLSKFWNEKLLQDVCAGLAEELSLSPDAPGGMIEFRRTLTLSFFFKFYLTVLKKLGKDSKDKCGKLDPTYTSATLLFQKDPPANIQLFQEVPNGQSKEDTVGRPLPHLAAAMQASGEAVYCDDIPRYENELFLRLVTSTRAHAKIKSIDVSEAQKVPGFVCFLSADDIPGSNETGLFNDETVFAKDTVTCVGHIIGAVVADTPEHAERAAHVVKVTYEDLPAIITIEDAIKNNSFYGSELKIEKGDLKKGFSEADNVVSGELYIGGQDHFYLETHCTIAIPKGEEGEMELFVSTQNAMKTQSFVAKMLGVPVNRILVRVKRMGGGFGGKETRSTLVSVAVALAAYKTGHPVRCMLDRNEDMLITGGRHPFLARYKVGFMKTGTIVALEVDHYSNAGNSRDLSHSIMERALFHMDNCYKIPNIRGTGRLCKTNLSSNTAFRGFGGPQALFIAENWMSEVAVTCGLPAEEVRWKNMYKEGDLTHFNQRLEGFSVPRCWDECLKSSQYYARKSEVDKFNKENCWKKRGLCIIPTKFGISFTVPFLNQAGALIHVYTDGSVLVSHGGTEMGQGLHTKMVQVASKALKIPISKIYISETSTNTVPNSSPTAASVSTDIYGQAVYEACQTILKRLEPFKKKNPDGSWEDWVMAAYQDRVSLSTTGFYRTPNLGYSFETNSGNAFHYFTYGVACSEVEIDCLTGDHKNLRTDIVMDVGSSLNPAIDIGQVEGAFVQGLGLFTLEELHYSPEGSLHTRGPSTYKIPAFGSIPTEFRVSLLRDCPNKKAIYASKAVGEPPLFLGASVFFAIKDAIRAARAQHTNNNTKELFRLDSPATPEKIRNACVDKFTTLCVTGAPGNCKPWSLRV
Readout: IC50
Please state the value followed by its unit.

**Q:** Answer briefly: IC50 recorded on xanthine oxidase (Bos taurus, UniProt P80457) for O=c1cc(-c2ccc(O)c(O)c2)oc2cc(O)cc(O)c12 [Luteolin, luteolin, reference compound]
**A:** 384 nM
